biological target: KLK5 (UniProt Q9Y337 67-293, limits assumed); assay: cell-based or functional assay
Sequence (Q9Y337 67-293 limits assumed): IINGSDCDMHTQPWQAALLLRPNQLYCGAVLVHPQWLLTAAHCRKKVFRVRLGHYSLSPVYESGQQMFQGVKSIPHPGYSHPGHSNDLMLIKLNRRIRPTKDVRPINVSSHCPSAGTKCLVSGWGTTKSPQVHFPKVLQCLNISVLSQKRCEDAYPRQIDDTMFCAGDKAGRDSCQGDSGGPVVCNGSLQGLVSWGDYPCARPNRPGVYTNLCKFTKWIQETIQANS

{"columns": ["binder", "KLK5 IC50 nM pH 7.5 (enzymatic activity) (nM)"],
 "data": [
  ["Spink9-186.Fc (SEQ ID NO: 58) (Fc fusion, Mutant SPINK9 domain fused directly to a C-terminal IgG Fc) IECAKQTKQMVDCSHYKKLPPAQLIYCTKEYDPICGSDGKTYKNDCFFCSKVKKTDGTLKFVHFGKCEPKSCDKTHTCPPCPAPEAAGGPSVFLFPPKPKDTLMISRTPEVTCVVVDVSHEDPEVKFNWYVDGVEVHNAKTKPREEQYNSTYRVVSVLTVLHQDWLNGKEYKCKVSNKALPAPIEKTISKAKGQPREPQVYTLPPSREEMTKNQVSLTCLVKGFYPSDIAVEWESNGQPENNYKTTPPVLDSDGSFFLYSKLTVDKSRWQQGNVFSCSVLHEALHSHYTQKSLSLSPGK", 1.9]
]}
